Consider the following pKi values measured on histamine 3 receptor (H3R) (Homo sapiens).
Sequence (Q9Y5N1 whole entry): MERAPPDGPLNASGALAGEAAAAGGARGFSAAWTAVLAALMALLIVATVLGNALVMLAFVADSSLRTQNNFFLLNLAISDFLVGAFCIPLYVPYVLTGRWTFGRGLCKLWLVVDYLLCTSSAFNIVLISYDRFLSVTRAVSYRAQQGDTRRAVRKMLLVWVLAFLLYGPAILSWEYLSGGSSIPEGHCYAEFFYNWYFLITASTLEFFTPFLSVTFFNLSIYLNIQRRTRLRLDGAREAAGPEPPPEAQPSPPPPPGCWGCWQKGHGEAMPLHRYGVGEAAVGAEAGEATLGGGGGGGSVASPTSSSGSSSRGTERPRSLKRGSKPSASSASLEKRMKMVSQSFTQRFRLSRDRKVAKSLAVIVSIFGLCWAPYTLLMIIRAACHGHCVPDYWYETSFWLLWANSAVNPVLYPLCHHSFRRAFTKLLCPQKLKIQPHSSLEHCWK
Counter-ions that a name gives are not always drawn.
Answers are plain numbers, as −log10 of the molar value.

- Compound: "CC(C)N1CCC(Nc2ccc3[nH]c(C(=O)N4CCOCC4)cc3c2)CC1 [Example 3]"
  pKi: 7.32

Now consider a different compound.
Record CC(C)N1CCC(Nc2ccc3[nH]c(C(=O)N4CCOCC4)cc3c2)C1 (centres unmarked) [Example 11, bis-hydrochloride] / histamine 3 receptor (H3R) (Homo sapiens), pKi recorded as 6.59
